- System: MDA-MB-435
- Measurement Description: NCI tumour cell line growth inhibition, 48 h
Activity calls are given as the source filed them. Cut-off read from the data, not from the text of the source: active = GI50 up to about 1.1 µM and inactive = higher.
GI50 values for the compounds below.

Answered cases to consult:
Compound: CCOC(=O)c1c(CN2CCNCC2)nc2ccccc2c1-c1ccccc1
Subject Of Test: MDA-MB-435
GI50: 14.3 µM (inactive)

Compound: O=C(NC1(C(=O)O)CC1c1ccccc1)c1ccccc1 (centres undefined)
Subject Of Test: MDA-MB-435
GI50: > 100 µM (inactive)

Compound: CCCCc1ccc(-n2c(C)c(COC(=O)NC)c(COC(=O)NC)c2C)cc1
Subject Of Test: MDA-MB-435
GI50: 12.5 µM (inactive)

With those in mind, consider the next compound.
Task item: Using known records, supply GI50 for `CC(=O)NC(NCCN)(c1ccccc1)c1ccccc1`
Reply: > 100 µM (inactive)

----------
- Test system: SK-MEL-28
- Measurement Description: NCI tumour cell line growth inhibition, 48 h
The source made the active and inactive calls. No stated cut-off is given here; in the data, active = GI50 up to about 1.1 µM and inactive = higher.
Quantity: GI50

Compound: CCOC(=O)C1=C(C)N(C2OC(COC(C)=O)C(OC(C)=O)C(OC(C)=O)C2OC(C)=O)C(=O)NC1c1ccccc1 (configuration not stated)
GI50: > 100 µM (inactive)

Compound: CCOC(=O)N1CCC2(CC1)CC(=O)N(Nc1ccccc1)C2=O
GI50: 74.3 µM (inactive)

Compound: Cc1cc2c(nn1)-c1ccccc1C2=O
GI50: > 10 µM (inactive)

Compound: COc1cc2oc(-c3ccc(O)cc3)cc(=O)c2c(OC)c1OC
GI50: > 100 µM (inactive)

With those in mind, consider the next compound.
Task item: Using known records, supply GI50 for `N#C/C(=C\c1ccc[nH]1)C(=O)c1ccccc1`
Reply: > 100 µM (inactive)

----------
- Tested on: SK-OV-3
- Measurement Description: NCI tumour cell line growth inhibition, 48 h
Activity calls are given as the source filed them. Cut-off read from the data, not from the text of the source: active = GI50 up to about 1.1 µM and inactive = higher.
Quantity: GI50

Answered cases to consult:
Compound: C#CCCOC(=O)c1ccccc1OC(C)=O
GI50: > 100 µM (inactive)
--
Compound: C/C(CN1C(=O)c2ccccc2C1=O)=N\NS(=O)(=O)c1ccccc1
GI50: > 100 µM (inactive)
--
Compound: CCCCCCSCC/C(C)=N\OC
GI50: > 100 µM (inactive)

Task item: Using known records, supply GI50 for N/N=C(/C(=O)Nc1cccc(Cl)c1)C(C(=O)c1ccc(O)cc1O)C1OC(=O)c2ccccc21 (stereo unspecified)
Reply: > 100 µM (inactive)

Task item: Using known records, supply GI50 for C=C1CC(COc2ccc3ccc(=O)oc3c2)(c2ccccc2)OC1=O (stereo unspecified)
Reply: 5.02 µM (inactive)

Task item: Using known records, supply GI50 for `C(=N\N=C1NCCCCN1)/c1ccc2ccccc2c1`
Reply: 27.2 µM (inactive)

Task item: Using known records, supply GI50 for O=C1CS(=O)(=O)C(c2cccc(Oc3ccccc3)c2)N1c1cccc(Cl)c1 (stereo unspecified)
Reply: 40.6 µM (inactive)

Task item: Using known records, supply GI50 for O=C1CCC2(c3ccc(F)cc3)Nc3ccccc3N12 (stereo unspecified)
Reply: > 100 µM (inactive)

Task item: Using known records, supply GI50 for CC1=NN(C(=O)c2ccc(C)cc2)C(=O)C1/N=N/c1ccccc1C(=O)O (stereo unspecified)
Reply: > 100 µM (inactive)

Task item: Using known records, supply GI50 for COc1ccc(/C=C2\CCC(C)C3=C(c4ccc(OC)c(OC)c4)C(C#N)=C(N)OC32)cc1OC (stereo unspecified)
Reply: 3.42 µM (inactive)

Task item: Using known records, supply GI50 for `Cc1ccc(Cc2c(=O)[nH]nc3ccccc23)cc1`
Reply: > 100 µM (inactive)

Task item: Using known records, supply GI50 for `CCOC(=O)C(=CNc1ccc(F)c(F)c1)C(=O)OCC`
Reply: > 100 µM (inactive)

Task item: Using known records, supply GI50 for `COc1cccc(NC(=O)CSc2nnc(Cc3ccccc3)o2)c1`
Reply: > 100 µM (inactive)

Task item: Using known records, supply GI50 for `O=C(c1cc(Cl)cc(Cl)c1)N(C(=S)OC12CC3CC(CC(C3)C1)C2)c1ccccc1`
Reply: 32.5 µM (inactive)

Task item: Using known records, supply GI50 for CC(C)=NC(C(=O)O)C(C)(C)S (stereo unspecified)
Reply: > 100 µM (inactive)

Task item: Using known records, supply GI50 for C[C@@H]1C[C@]2(C[C@@H](C)[C@H]3C(C[C@@]4(C)CCC[C@@H]5C6=C[C@H](CCC34C)OC6=CC(=O)OC5(C)C)O2)OC1=O (stereo partly specified)
Reply: > 51.5 µM (inactive)

Source of measurements: ChEMBL document CHEMBL1201862
